Data provenance is patent US20240309103A1.

# TARGET: T1, monkey NPR1 extracellular domain expressed with a C-terminal myc-myc-hexahistidine (mfNPR1-MMH) (monkey, UniProt P16066 33-473 (human entry))
# T1 construct: also called monomeric monkey NPR1
# T1 chain: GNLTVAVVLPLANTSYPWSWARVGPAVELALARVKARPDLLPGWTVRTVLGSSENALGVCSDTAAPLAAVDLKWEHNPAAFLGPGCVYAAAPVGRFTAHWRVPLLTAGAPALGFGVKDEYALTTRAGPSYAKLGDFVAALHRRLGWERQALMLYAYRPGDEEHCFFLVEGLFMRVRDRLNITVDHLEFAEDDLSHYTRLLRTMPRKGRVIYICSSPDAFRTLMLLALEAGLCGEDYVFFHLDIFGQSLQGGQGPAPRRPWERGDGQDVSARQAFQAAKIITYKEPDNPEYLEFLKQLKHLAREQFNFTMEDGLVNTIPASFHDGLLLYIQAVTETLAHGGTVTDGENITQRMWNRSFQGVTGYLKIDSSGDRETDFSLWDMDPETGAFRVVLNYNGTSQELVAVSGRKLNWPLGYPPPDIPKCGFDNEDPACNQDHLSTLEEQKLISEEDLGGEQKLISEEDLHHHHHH
# PROCEDURE_SUMMARY: SPR, mAb captured, 25 C
# Description: Equilibrium dissociation constant (KD) for different NPR1 reagents binding to purified anti-NPR1 monoclonal antibodies (mAbs) were determined using a real-time surface plasmon resonance based Biacore 4000 biosensor. All binding studies were performed in 10 mM HEPES, 150 mM NaCl, 3 mM EDTA, and 0.05% v/v Surfactant Tween-20, pH 7.4 (HBS-ET) running buffer at 25° C. and 37° C. […]
// values below are reported 100 nM Ag Bound (RU)
EXPERIMENTAL_ENDPOINT: 100 nM Ag Bound (RU)

>>> data_value("mAb25508 (antibody, V domains shown) VH: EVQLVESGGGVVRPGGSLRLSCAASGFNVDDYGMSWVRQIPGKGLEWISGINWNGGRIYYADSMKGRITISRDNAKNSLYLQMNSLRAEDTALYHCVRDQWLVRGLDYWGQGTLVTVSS VL: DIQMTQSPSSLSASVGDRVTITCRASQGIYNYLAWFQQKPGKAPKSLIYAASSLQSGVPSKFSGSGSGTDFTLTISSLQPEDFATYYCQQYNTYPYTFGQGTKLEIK")
213
>>> data_value("mAb22805 (antibody, V domains shown) VH: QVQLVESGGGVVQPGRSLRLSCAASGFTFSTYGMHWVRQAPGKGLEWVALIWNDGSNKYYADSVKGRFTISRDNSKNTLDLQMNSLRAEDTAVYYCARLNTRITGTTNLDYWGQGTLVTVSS VL: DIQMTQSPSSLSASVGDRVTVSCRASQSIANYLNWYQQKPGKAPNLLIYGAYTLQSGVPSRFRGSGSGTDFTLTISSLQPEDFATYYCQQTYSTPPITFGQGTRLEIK")
0
>>> data_value("mAb22033 (antibody, V domains shown) VH: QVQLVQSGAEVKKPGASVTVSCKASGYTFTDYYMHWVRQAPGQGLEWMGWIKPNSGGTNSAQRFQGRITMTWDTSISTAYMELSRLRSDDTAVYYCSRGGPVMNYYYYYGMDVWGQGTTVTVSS VL: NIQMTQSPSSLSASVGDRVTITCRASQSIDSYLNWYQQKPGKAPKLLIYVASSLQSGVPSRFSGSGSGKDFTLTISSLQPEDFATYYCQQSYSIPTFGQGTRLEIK")
79
